target: Glucose transporter (Leishmania mexicana) (UniProt O61059); assay: ST_JUDE_LEISH: Cytotoxicity at 2uM final concentration against transgenic Leishmania Mexicana promastigotes LmGT2 that are glucose transport deficient and complemented with the L. Mexicana glucose transporter 2. Activity is measured by DNA content using SYBR green in vitro; type: functional

# COMPOUND, TESTED ON, inhibition, %
measured = [
    ("C(=C(c1cccs1)c1cccs1)c1ccc(CNC2CCN(Cc3ccccc3)CC2)cc1", "Glucose transporter (Leishmania mexicana) (UniProt O61059)", 5.77),
    ("CCc1cn2c3c(cc(C(=O)N[C@@H](Cc4cccc(F)c4)[C@H](O)CNC4CC4)cc13)N(C)S(=O)(=O)CC2", "Glucose transporter (Leishmania mexicana) (UniProt O61059)", 4.48),
    ("COc1ccccc1-n1ccnc1SCC(=O)Nc1cccc(C(F)(F)F)c1", "Glucose transporter (Leishmania mexicana) (UniProt O61059)", 2.6),
    ("C(=Cc1ccccc1)C=NN=c1cc[nH]c2ccccc12", "Glucose transporter (Leishmania mexicana) (UniProt O61059)", -2.14),
    ("CC(=O)c1cc(N2CCOCC2)ccc1N", "Glucose transporter (Leishmania mexicana) (UniProt O61059)", 2.38),
    ("COc1ccc(C2=CCN(c3ccc(Cl)c(Cl)c3)C2=O)cc1OCCN1CCCCC1", "Glucose transporter (Leishmania mexicana) (UniProt O61059)", -4.01),
    ("COc1ccc(C2CC(c3cccs3)=NN2C(=O)c2ccco2)cc1OC (stereo not given)", "Glucose transporter (Leishmania mexicana) (UniProt O61059)", 4.31),
    ("Cc1nc(NCc2ccccc2)cc(NCC(O)c2ccc(O)cc2)n1 (stereo not given)", "Glucose transporter (Leishmania mexicana) (UniProt O61059)", 7.2),
    ("CN1CCc2cc(O)c(NS(=O)(=O)c3ccc(-c4ccc(Cl)cc4)cc3)cc2CC1", "Glucose transporter (Leishmania mexicana) (UniProt O61059)", 9.99),
    ("COc1ccc(CC2(c3ccc(F)cc3)N=C(N)N(CCCc3ccccc3)C2=O)cc1 (stereo not given)", "Glucose transporter (Leishmania mexicana) (UniProt O61059)", 4.39),
    ("CN(C)c1cc2c(Nc3ccc4nc(Cc5ccccc5)[nH]c4c3)ncnc2cn1", "Glucose transporter (Leishmania mexicana) (UniProt O61059)", 2.46),
    ("CC(C)NCC(=O)Nc1cccc(C(=O)Nc2cccc(C(F)(F)F)c2)c1", "Glucose transporter (Leishmania mexicana) (UniProt O61059)", -1.8),
    ("CC(=O)Oc1cc(OCc2ccccc2)c(OC(C)=O)c(OCc2ccccc2)c1", "Glucose transporter (Leishmania mexicana) (UniProt O61059)", -0.19),
    ("Cc1c(Cl)cccc1S(=O)(=O)N1CCCCC(c2ccc(C(F)(F)F)cc2)=N1", "Glucose transporter (Leishmania mexicana) (UniProt O61059)", -0.52),
    ("O=C(Nc1ccc(F)cc1)NC1CCN(CCCCCNC(=O)C2CC2c2ccc(Cl)c(Cl)c2)CC1 (stereo not given)", "Glucose transporter (Leishmania mexicana) (UniProt O61059)", 2.31),
    ("Cc1c(CN2CCCCC2)cccc1OCCCNc1nc(NCCc2ccc(O)cc2)nc(N2CCNCC2)n1", "Glucose transporter (Leishmania mexicana) (UniProt O61059)", 5.43),
    ("CC(O)C1CCCCN1C(=O)c1cccc(-c2ccc(-c3nc4ccccc4[nH]3)s2)c1 (stereo not given)", "Glucose transporter (Leishmania mexicana) (UniProt O61059)", 5.38),
    ("O=C(NCCN1CCCC1)N1CCCN(c2ncnc3cc(-c4ccc(F)cc4)sc23)CC1", "Glucose transporter (Leishmania mexicana) (UniProt O61059)", 4.44),
    ("Cc1cc(NC(=O)Nc2ccc3sccc3c2)c2ccccc2n1", "Glucose transporter (Leishmania mexicana) (UniProt O61059)", 0.53),
    ("Cc1n[nH]c2cc(Nc3ccnc(Nc4ccc(CN5CCOCC5)cc4)n3)ccc12", "Glucose transporter (Leishmania mexicana) (UniProt O61059)", 14.2),
    ("COc1ccc(-c2cccc(NC(=O)c3cccc(C#N)c3)c2)cc1CN(C)CCN(C)C", "Glucose transporter (Leishmania mexicana) (UniProt O61059)", 0.48),
    ("COc1ccc(Nc2nccc(NCCNC(=O)Nc3ccccc3F)n2)cc1", "Glucose transporter (Leishmania mexicana) (UniProt O61059)", -0.4),
    ("Nc1c2ccccc2nc2cc([N+](=O)[O-])ccc12", "Glucose transporter (Leishmania mexicana) (UniProt O61059)", 0.99),
    ("CCCCNC(=O)[C@@H]1CCCN1C(=O)c1ccc(O)c(-c2ccc(Cl)c(Cl)c2)c1", "Glucose transporter (Leishmania mexicana) (UniProt O61059)", -3.49),
    ("CNC(=N)c1ccc(NC(=O)Nc2ccc(C(=N)NC)cc2)cc1", "Glucose transporter (Leishmania mexicana) (UniProt O61059)", 3.62),
]

---

molecular target: Solute carrier family 2, facilitated glucose transporter member 1 (Homo sapiens) (UniProt P11166); assay: ST_JUDE_LEISH: Cytotoxicity at 2uM final concentration against transgenic Leishmania Mexicana promastigotes LmGLUT1 that are glucose transport deficient and complemented with the human glucose transporter GLUT1. Activity is measured by DNA content using SYBR green in vitro; assay type: functional
Sequence (P11166 whole entry): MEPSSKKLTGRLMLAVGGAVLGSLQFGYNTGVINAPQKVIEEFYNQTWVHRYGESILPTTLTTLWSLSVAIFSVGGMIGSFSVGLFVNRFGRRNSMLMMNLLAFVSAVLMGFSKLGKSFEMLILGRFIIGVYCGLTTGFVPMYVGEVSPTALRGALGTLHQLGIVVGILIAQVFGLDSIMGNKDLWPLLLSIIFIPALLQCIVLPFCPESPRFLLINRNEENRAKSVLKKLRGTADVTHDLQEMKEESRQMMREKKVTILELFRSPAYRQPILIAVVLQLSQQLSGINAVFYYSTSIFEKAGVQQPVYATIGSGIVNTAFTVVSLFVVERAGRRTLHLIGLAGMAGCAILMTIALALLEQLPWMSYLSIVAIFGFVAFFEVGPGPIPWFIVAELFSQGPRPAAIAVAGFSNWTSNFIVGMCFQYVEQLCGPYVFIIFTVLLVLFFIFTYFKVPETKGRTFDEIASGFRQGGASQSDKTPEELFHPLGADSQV
OUTCOME MEASURE: inhibition (%)

# COMPOUND, REPORTED RESULT
rows = [
    ("Cc1cc2ccccc2n1CC(=O)N1CC(C(=O)N2CCCCC2)Oc2ccccc21 (stereo unspecified)", -0.25),
    ("O=c1cc(NCCCNCc2cc(Cl)c(Cl)cc2Cl)[nH]c2ccccc12", 0.5),
    ("CN(C)c1ccc(CN2CCCC(CNC(=O)c3ccc(-c4cccc(C(F)(F)F)c4)s3)C2)cc1 (stereo unspecified)", 1.33),
    ("O=S(=O)(Nc1cccc(CCN2CCC(N3CCCCC3)CC2)c1)c1cccc2ccccc12", 4.59),
    ("CC(C)c1ccc(C(NC(=O)C2CCCCC2)c2ccc3cccnc3c2O)cc1 (stereo unspecified)", -0.43),
    ("Cc1ccccc1C(O)CNc1ccnc(Nc2cccc(C#N)c2)n1 (stereo unspecified)", 3.5),
    ("OCCNc1nc(Nc2cccc(O)c2)nc2ccccc12", 4.65),
    ("COc1cc(CN/C(=N/c2ccc(-c3ccccc3)cc2)Nc2ccc(C#N)cc2O)cc(OC)c1", 1.7),
    ("Cc1nnsc1C(=O)Nc1cccc(-c2ccc(-c3nc4ccccc4[nH]3)cc2)c1", 7.04),
    ("O=C(NC(=O)c1ccccc1)NC1CCN(c2ccnc3cc(Cl)ccc23)C1 (stereo unspecified)", -0.37),
    ("O=C(NCc1ccc(Cl)cc1)c1ccc(CN2CCCN(Cc3cccc(O)c3)CC2)cc1", 0.86),
]

---

target: Hexose transporter 1 (Plasmodium falciparum) (UniProt O97467); experiment: ST_JUDE_LEISH: Cytotoxicity at 2uM final concentration against transgenic Leishmania Mexicana promastigotes LmPfHT that are glucose transport deficient and complemented with the Plasmodium falciparum hexose transporter. Activity is measured by DNA content using SYBR green in vitro; format: functional
Listed next: entries and their corresponding inhibition.
OUTCOME MEASURE: inhibition (%)

# COMPOUND, REPORTED RESULT
measured = [
    ("N#Cc1ccc2c(c1)CCN(CCC1CCC(NC(=O)/C=C/c3cnc4ccccc4c3)CC1)CC2 (stereo not given)", 4.53),
    ("CCCCc1ccc(-c2c(N)nc(N)nc2CC)cc1", 9.06),
    ("Fc1ccc2[nH]c(-c3cccc(-c4cccc(CNCCN5CCNCC5)c4)c3)nc2c1", 2.3),
    ("O=C(NCc1cccs1)[C@H](Cc1ccccc1)Nc1ccnc(NCCc2ccc(F)cc2)n1", 9.62),
    ("NCCCOc1cnc(-c2ccccc2)c2nc(-c3nonc3N)n(CCc3ccccc3)c12", 2),
    ("CCCc1cc(=O)oc2cc(OC)c(C(=O)CC(C)C)c(OC)c12", 3.76),
    ("Oc1ccc(-c2cc(COc3ccccc3C(F)(F)F)c(C3=CCNCC3)cc2COc2ccccc2C(F)(F)F)cc1", 2.67),
    ("CN1CCN(Cc2ccc(-c3ccc4c(Nc5ccc(F)cc5Cl)ccnc4c3)o2)CC1", 0.83),
    ("CCc1c(CCNCC/C=C/CCNCCc2ccc(OC)c(OC)c2CC)ccc(OC)c1OC", 1.33),
    ("COc1ccc(-c2cnc(N)c(-c3nc4cc(Br)ccc4[nH]3)c2)cc1", 11.3),
    ("CN1CCCN(Cc2ccc(-c3cccc(NC(=O)c4cccc(F)c4)c3)cc2)CC1", 9.38),
    ("CS(=O)(=O)c1cccc(-c2cnc3[nH]cc(-c4ccc(C(=O)O)cc4)c3c2)c1", -0.81),
    ("COc1cccc(Cc2cnc3nc(N)nc(N)c3c2C)c1", 1.68),
    ("O=C(NCCc1cccc(Cl)c1Cl)c1ccc(N2CCN(c3ccncc3)CC2)nc1", 16.9),
    ("CN(C)CCCOc1cccc(NC(=O)Nc2ccc(-c3ccccc3)cc2)c1", -1.23),
    ("O=S(=O)(Nc1cccc(CCN2CCCCC2CCN2CCCC2)c1)c1ccc(Oc2ccccc2)cc1 (stereo not given)", 1.13),
    ("COc1ccc(CN2CCC(CNCCc3c(Cl)cccc3Cl)CC2)cc1", 8.38),
    ("CC(C)(C)Nc1cc(C2CC2)nc(-c2ccccn2)n1", 4.26),
    ("COc1cc(NC(=O)/C=C/c2cc(F)cc(F)c2F)cc(OCCN2CCC3(CC2)OCCO3)c1", 3.1),
    ("O=[N+]([O-])c1cccc(NC(=S)N2CCCN(Cc3ccc(Cl)cc3Cl)CC2)c1", 3.32),
]
